- Test system: HLA-B*08
- protocol_text: MHC binding assay (UV-ligand exchange, β2m ELISA)
- Set-up: species or system human
property_label: Peptide exchange (peptide exchange yield, MHC class I binding score)

Known results for substances:
{"columns": ["substance", "reported"],
 "data": [
  ["299 (MAQFKEISL; listed as Homo sapiens) [compound 299]", "“++++” (>75% = ++++)"],
  ["313 (ELKKKEYEEL; listed as Homo sapiens) [compound 313]", "“++++” (>75% = ++++)"],
  ["298 (FNKRKPLSL; listed as Homo sapiens) [compound 298]", "“+++” (>50 = +++)"],
  ["314 (AIISRLVAL; listed as Homo sapiens) [compound 314]", "“++++” (>75% = ++++)"],
  ["309 (DAIQRKYSC; listed as Homo sapiens) [compound 309]", "“+++” (>50 = +++)"],
  ["318 (EAAIRSVEL; listed as Homo sapiens) [compound 318]", "“++++” (>75% = ++++)"],
  ["310 (LPPKKFVL; listed as Homo sapiens) [compound 310]", "“++++” (>75% = ++++)"],
  ["296 (MPMQDIKM; listed as Homo sapiens) [compound 296]", "“++++” (>75% = ++++)"]
]}

Then there is this substance:
Dear colleague, please send me the reported Peptide exchange (peptide exchange yield, MHC class I binding score) for 297 (RAQLKLVAL; listed as Homo sapiens) [compound 297] when you can.
“++++” (>75% = ++++)

These data points were gathered from patent US11292821B2.
